- TEST SUMMARY: in vivo
- Parameters: species or system dog (male purebred beagles)
- DETAILS: dog, po
Where a name gives a salt, the structure may show the parent alone.
MEASURED ATTRIBUTE: Tmax (min)
Give bare numbers, in min.

So what's the measured Tmax for this one? CC(=O)Nc1ccc(O)cc1 [Sodium Salt, acetaminophen sodium]
16.2

----------
- TEST SUMMARY: dissolution of APAP form (powder) in 0.1N hydrochloric acid, USP Dissolution Apparatus 2
- Assay type: physicochemical
- DETAILS: paddle 50 rpm, 37° C.
Counter-ions that a name gives are not always drawn.
I'd be grateful if you could share measured concentration of acetaminophen at 30 seconds for these entries.

// known answers, use as guide
[[record]]
compound = "CC(=O)Nc1ccc(O)cc1 [Sodium Salt, acetaminophen sodium]"
val = "0.30 Mg/mL of APAP"

[[record]]
compound = "CC(=O)Nc1ccc(O)cc1 [Calcium Salt, acetaminophen calcium]"
val = "0.20 Mg/mL of APAP"


Please give concentration of acetaminophen at 30 seconds, item by item, for the list that follows.
1. CC(=O)Nc1ccc(O)cc1 [Lithium Salt, acetaminophen lithium]
2. CC(=O)Nc1ccc(O)cc1 [Free Acid, acetaminophen]

1: 0.32 Mg/mL of APAP; 2: 0.02 Mg/mL of APAP
